ASSAY NOTES: Kinetic solubility of the compound in PBS buffer at pH 7.4 after 18 hrs by UV spectrophotometric analysis
Format: physicochemical
TEST CONTEXT: PBS buffer, pH 7.4; read-out: Kinetic_solubility
ASSAY ENDPOINT: log10 solubility kinetic at 18 h (log10 of the value in µM)
Parameter value (number): base-10 log of solubility kinetic at 18 h in µM.

O=C(Nc1nc2ccc(F)cc2s1)c1cc([N+](=O)[O-])ccc1Cl: -0.24
O=C(Nc1cccc(-c2nc3ccccc3s2)c1)c1cc([N+](=O)[O-])c(N2CCNCC2)cc1Cl: -0.14
Cc1cc(NC(=O)c2cc([N+](=O)[O-])ccc2Cl)cc(-c2nc3ccccc3o2)c1O: -1.05

Qu. What measured log10 solubility kinetic at 18 h goes with O=C(Nc1ccc(O)c(-c2nc3ccccc3s2)c1)c1cc([N+](=O)[O-])ccc1Cl ?
Ans. -1.64

Qu. What measured log10 solubility kinetic at 18 h goes with Cc1ccc(-c2nc3ccccc3s2)cc1NC(=O)c1cc([N+](=O)[O-])c(N2CCNCC2)cc1Cl ?
Ans. -1.10
